- Tested on: TK-10 renal
- method description: NCI tumour cell line growth inhibition, 48 h
value kind: TGI

Field: example entries. Status: answers known.
COC1=CC(=O)c2c(c(COC(C)=O)cn2C)C1=O = 0.207 µM
CC(C)(C)[Si](C)(C)OC1[C@@H](O[Si](C)(C)C(C)(C)C)[C@@H](CNC(=O)NC(=O)NC(=O)CCl)O[C@H]1n1cnc2c(NC(=O)Nc3ccccc3)ncnc21 (stereo not given in full) = 7.81 µM
O=c1c2ccccc2nc2n1CCc1c-2[nH]c2cc3c(cc12)OCO3 = > 25 µM

Qu. Quickly give me recorded TGI for O=C(CC(Cc1ccccc1)c1ccc(Oc2ccccc2)cc1)Nc1cccc(Cl)c1 (stereo not given)
Ans. > 100 µM

Qu. Quickly give me recorded TGI for Cc1cc(I)cc(CNCCN2CCOCC2)c1O
Ans. > 100 µM
